Origin of measurements: ChEMBL document CHEMBL5518190

Target: Phosphatidylinositol 4,5-bisphosphate 3-kinase catalytic subunit gamma isoform (Homo sapiens)
Sequence (P48736 whole entry, canonical isoform): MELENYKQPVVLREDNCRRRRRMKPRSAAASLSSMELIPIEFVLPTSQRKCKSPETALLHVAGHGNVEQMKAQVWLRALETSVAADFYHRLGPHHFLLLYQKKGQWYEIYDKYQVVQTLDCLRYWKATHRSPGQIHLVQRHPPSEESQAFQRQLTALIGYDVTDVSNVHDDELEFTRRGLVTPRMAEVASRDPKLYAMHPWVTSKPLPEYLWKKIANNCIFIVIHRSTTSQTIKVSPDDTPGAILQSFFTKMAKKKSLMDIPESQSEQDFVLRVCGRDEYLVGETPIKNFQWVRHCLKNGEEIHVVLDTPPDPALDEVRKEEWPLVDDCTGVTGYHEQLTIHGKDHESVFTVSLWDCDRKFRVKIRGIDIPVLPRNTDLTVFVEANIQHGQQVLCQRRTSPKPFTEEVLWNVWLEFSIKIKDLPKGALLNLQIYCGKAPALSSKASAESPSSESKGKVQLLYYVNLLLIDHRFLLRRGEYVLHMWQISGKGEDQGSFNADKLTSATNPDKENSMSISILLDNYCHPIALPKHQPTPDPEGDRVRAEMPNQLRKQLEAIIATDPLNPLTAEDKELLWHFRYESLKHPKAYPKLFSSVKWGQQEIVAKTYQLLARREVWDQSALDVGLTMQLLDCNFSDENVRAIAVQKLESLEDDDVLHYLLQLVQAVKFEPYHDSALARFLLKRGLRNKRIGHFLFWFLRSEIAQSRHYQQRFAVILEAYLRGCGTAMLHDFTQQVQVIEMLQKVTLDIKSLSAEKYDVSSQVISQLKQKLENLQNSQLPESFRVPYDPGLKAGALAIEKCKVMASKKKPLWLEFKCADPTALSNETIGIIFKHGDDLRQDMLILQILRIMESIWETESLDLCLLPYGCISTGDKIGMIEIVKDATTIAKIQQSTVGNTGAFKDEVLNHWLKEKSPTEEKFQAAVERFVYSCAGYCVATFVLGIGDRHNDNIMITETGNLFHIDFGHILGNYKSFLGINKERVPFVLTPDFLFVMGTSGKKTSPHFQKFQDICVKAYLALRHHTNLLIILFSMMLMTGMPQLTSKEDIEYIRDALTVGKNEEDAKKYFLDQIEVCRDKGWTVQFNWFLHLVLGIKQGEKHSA
OBSERVABLE: IC50 (nM)

• COc1c(OCCCCCC(=O)NO)ccc2c1N=C(NC(=O)c1ccccc1)N1CCN=C21 = 25

----------
Biological target: Phosphatidylinositol 4,5-bisphosphate 3-kinase catalytic subunit beta isoform (Homo sapiens)
Sequence (P42338 whole entry, canonical isoform): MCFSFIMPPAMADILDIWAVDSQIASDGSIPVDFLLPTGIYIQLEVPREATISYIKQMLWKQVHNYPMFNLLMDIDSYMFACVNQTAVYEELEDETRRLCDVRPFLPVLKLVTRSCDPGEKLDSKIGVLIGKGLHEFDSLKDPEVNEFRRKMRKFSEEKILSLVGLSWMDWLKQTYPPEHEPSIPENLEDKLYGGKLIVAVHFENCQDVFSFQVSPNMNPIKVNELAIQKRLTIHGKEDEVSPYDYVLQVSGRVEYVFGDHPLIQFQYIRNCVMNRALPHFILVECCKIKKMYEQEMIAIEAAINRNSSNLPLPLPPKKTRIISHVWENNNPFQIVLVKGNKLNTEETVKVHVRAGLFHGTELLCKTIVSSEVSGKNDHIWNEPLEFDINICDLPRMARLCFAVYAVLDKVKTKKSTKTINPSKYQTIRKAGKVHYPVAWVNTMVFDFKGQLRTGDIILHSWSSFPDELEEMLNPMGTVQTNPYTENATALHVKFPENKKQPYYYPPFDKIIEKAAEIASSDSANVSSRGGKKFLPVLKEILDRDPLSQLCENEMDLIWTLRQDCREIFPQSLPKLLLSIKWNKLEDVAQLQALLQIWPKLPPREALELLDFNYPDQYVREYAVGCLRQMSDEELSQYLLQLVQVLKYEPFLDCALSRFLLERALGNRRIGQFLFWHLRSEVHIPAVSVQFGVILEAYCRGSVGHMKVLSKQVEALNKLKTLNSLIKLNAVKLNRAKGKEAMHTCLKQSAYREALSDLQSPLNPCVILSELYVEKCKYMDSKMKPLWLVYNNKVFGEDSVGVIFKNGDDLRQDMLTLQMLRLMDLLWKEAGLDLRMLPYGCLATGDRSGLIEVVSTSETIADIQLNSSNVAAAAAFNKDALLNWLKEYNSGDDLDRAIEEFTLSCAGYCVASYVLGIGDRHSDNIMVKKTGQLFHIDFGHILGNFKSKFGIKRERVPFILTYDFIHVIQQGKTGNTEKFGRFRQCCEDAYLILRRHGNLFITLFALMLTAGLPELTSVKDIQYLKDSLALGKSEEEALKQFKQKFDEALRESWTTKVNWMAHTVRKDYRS
Test: Inhibition of PI3Kbeta (unknown origin) using […] as substrate preincubated for 15 mins followed by substrate addition and measured after 1 hr by HTRF assay
OBSERVABLE: IC50 (µM)

* CCOC(=O)c1nn(-c2ccccc2)c(=O)c2c(N)c(C#N)c(-c3cccs3)cc12 | 32.7
